System: Plasmodium falciparum
Assay Overview: Screen against P. falciparum Asexual Blood Stage (ABS), at 5uM
Format: functional, Dd2
Condition Notes: tested at 5 uM
The campaign covered roughly 65,000 compounds. About 2,100 (3.2%) showed an effect of 50% or more. The median lay at about -52%. Many of the other results were omitted from the sample, so strong results are more common in it than they were.
Response field label takes class 1 when INHIBITION is strictly below -40% and class 0 in all other cases.

These solved cases illustrate the format of a correct answer.
CCN1CCN(C(=O)COc2ccc(CN(C)S(C)(=O)=O)cc2)CC1 : class 0
CN1CCCCC1c1ncc2c(n1)CCN(Cc1ccc(F)cc1)C2 (centres undefined) : class 0
COCCn1c(C(=O)NC(C(N)=O)C(C)C)cc2ccccc21 (centres undefined) : class 1
Cc1ccc2c(n1)N(C)CCN(Cc1cnn(C)c1)C2 : class 0
CC(C)c1nc(CN2CCN(C(=O)Cc3ccccc3Cl)CC2)no1 : class 0

input: Is -40% strictly greater than the compound's reported INHIBITION? compound: c1ccn2cc(CN3CCCC(c4ccn[nH]4)C3)nc2c1 (centres undefined)
output: class 0

input: Is -40% strictly greater than the compound's reported INHIBITION? compound: "CC(C)=CCN1CCC2(CC1)CC(=O)N(Cc1cc(F)cc(F)c1)C2"
output: class 0

input: Is -40% strictly greater than the compound's reported INHIBITION? compound: "O=C1NCC[C@]12CN(Cc1cccnc1)C[C@H]2c1ccccc1"
output: class 0

input: Is -40% strictly greater than the compound's reported INHIBITION? compound: "CN(C)C[C@]12COC[C@H]1CN(Cc1ccc3ccccc3n1)C2"
output: class 0

input: Is -40% strictly greater than the compound's reported INHIBITION? compound: "Cc1c(F)cccc1S(=O)(=O)NC(C)(C)CN"
output: class 0

input: Is -40% strictly greater than the compound's reported INHIBITION? compound: c1cnc(N2CCC3(COCCN(CC4CCOCC4)C3)C2)nc1 (centres undefined)
output: class 0

input: Is -40% strictly greater than the compound's reported INHIBITION? compound: CCN1CCOCC2(C1)CN(C(=O)c1c(C)noc1C)CCO2 (centres undefined)
output: class 0

input: Is -40% strictly greater than the compound's reported INHIBITION? compound: Cc1cc(Cc2ccccc2)cc(C2CCCNC2)n1 (centres undefined)
output: class 0

input: Is -40% strictly greater than the compound's reported INHIBITION? compound: "COc1cc(C(=O)NCC2(N(C)C)CCN(C)CC2)c2ccccc2n1"
output: class 0

input: Is -40% strictly greater than the compound's reported INHIBITION? compound: "FC(F)(F)c1cccc(C2(CNCc3cc[nH]c3)CCOCC2)c1"
output: class 0

input: Is -40% strictly greater than the compound's reported INHIBITION? compound: Cc1cc(C2CCCN(CC(=O)Nc3nc4c(s3)CCC4)C2)n[nH]1 (centres undefined)
output: class 0

input: Is -40% strictly greater than the compound's reported INHIBITION? compound: "Cc1n[nH]c(C)c1CC(=O)N1CCCN(C)C2(CCN(C)CC2)C1"
output: class 1

input: Is -40% strictly greater than the compound's reported INHIBITION? compound: "CN1CCN(Cc2ccc(F)cc2)Cc2cccnc21"
output: class 0

input: Is -40% strictly greater than the compound's reported INHIBITION? compound: "c1cc(N2CCC(CN3CCOCC3)CC2)c2sccc2n1"
output: class 0

input: Is -40% strictly greater than the compound's reported INHIBITION? compound: Cc1cc(NC2CC3(CCN(Cc4ncccc4F)C3)C2)ncn1 (centres undefined)
output: class 0

input: Is -40% strictly greater than the compound's reported INHIBITION? compound: "c1cnc(N2CCN3C[C@H](Oc4cncnc4)C[C@H]3C2)nc1"
output: class 1

input: Is -40% strictly greater than the compound's reported INHIBITION? compound: "Cc1cc(-c2cc(S(=O)(=O)N3C[C@H](C4CC4)[C@@H](N)C3)c(C)s2)on1"
output: class 0

input: Is -40% strictly greater than the compound's reported INHIBITION? compound: "CN(C)c1ncc2c(c1C(=O)O)CCN(Cc1ccco1)C2"
output: class 1

input: Is -40% strictly greater than the compound's reported INHIBITION? compound: CCN1CCC2(COCc3cnc(-c4cccnc4)nc32)C1 (centres undefined)
output: class 1

input: Is -40% strictly greater than the compound's reported INHIBITION? compound: FC(F)(F)c1nc(C2CCCNC2)no1 (centres undefined)
output: class 0

input: Is -40% strictly greater than the compound's reported INHIBITION? compound: CCC(O)CN1CCN(C(=O)Cc2nc(-c3ccco3)oc2C)CC1 (centres undefined)
output: class 1

input: Is -40% strictly greater than the compound's reported INHIBITION? compound: Cc1nc(CN2CCCC(NCCc3ccccc3Cl)C2)no1 (centres undefined)
output: class 0

input: Is -40% strictly greater than the compound's reported INHIBITION? compound: "c1cc(COC[C@]23COC[C@H]2CN(Cc2ccncc2)C3)ccn1"
output: class 1

input: Is -40% strictly greater than the compound's reported INHIBITION? compound: "c1cc(CN2CCSC3(CCCCC3)C2)no1"
output: class 1

input: Is -40% strictly greater than the compound's reported INHIBITION? compound: CCc1noc(C(C)N2CCN(C)CC2)n1 (centres undefined)
output: class 0

input: Is -40% strictly greater than the compound's reported INHIBITION? compound: Fc1ccc(CN2CCCC(c3cc4ncccc4[nH]3)C2)cc1 (centres undefined)
output: class 0

Reference source: ChEMBL document CHEMBL4513216
